- test_system: Cytochrome P450 2C9 (Homo sapiens, UniProt P11712)
- Sequence (P11712 whole entry): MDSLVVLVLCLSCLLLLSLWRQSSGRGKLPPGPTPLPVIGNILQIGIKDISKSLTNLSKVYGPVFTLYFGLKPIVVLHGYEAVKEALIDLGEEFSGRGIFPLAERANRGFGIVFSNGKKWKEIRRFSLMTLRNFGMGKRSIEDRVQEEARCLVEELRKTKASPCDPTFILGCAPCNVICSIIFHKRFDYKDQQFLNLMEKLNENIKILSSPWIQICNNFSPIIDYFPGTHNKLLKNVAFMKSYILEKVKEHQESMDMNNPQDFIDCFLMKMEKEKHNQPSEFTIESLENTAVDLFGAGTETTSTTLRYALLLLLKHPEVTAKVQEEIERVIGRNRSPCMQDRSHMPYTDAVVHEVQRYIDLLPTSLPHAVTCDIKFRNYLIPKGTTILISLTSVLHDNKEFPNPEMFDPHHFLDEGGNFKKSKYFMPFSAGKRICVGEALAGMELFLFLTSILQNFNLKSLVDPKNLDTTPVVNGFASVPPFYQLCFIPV
observed_property: pIC50
# pIC50 = -log10(concentration in molar units)

Form field, pIC50 with Cytochrome P450 2C9 (Homo sapiens, UniProt P11712), item CN(C)CC1CCC(CNc2nc(NCc3ccccc3Cl)ncc2[N+](=O)[O-])CC1 (stereo unspecified) : 5.08

----------
- test_system: Protein kinase C theta type (Homo sapiens, UniProt Q04759)
- Sequence (Q04759 whole entry): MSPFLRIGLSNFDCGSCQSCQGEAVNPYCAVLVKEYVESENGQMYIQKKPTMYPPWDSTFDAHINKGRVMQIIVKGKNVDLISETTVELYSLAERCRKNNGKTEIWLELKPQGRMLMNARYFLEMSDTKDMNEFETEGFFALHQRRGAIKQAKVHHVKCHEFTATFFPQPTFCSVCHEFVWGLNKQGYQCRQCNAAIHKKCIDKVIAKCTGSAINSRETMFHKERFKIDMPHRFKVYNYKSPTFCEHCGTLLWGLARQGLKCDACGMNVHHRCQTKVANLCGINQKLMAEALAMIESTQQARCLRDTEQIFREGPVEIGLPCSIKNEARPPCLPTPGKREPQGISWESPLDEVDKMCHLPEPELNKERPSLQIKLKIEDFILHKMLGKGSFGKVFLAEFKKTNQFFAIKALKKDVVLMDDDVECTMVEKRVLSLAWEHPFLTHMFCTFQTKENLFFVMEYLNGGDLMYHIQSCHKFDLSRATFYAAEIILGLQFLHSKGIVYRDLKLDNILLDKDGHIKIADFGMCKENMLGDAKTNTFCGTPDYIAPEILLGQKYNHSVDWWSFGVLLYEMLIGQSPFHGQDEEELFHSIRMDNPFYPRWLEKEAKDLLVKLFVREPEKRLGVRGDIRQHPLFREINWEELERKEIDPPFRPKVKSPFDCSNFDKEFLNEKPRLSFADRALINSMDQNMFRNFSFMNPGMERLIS
- assay_method_text: Inhibition of PKCtheta by FP assay
observed_property: pIC50
# pIC50 = -log10(concentration in molar units)

| molecule | test_system | pIC50 |
| --- | --- | --- |
| NCc1ccc(CNc2nc(NCc3ccccc3Cl)ncc2[N+](=O)[O-])cc1 | Protein kinase C theta type (Homo sapiens, UniProt Q04759) | 6.80 |
| NCC1CCC(CNc2nc(Nc3cc(Cl)cc(Cl)c3)ncc2C(F)(F)F)CC1 (stereo not given) | Protein kinase C theta type (Homo sapiens, UniProt Q04759) | 5.38 |
| NCC1CCC(CNc2nc(NCc3ccccc3OC(F)(F)F)ncc2[N+](=O)[O-])CC1 (stereo not given) | Protein kinase C theta type (Homo sapiens, UniProt Q04759) | 7.74 |
| NCC1CCC(CNc2nc(Nc3cc(Cl)cc(Cl)c3)ncc2[N+](=O)[O-])CC1 (stereo not given) | Protein kinase C theta type (Homo sapiens, UniProt Q04759) | 6.17 |
| Cc1cccc(CNc2ncc([N+](=O)[O-])c(NCC3CCC(CN)CC3)n2)c1C (stereo not given) | Protein kinase C theta type (Homo sapiens, UniProt Q04759) | 7.89 |

So for NCC1CCC(CNc2nc(NCCc3ccc(F)cc3)ncc2[N+](=O)[O-])CC1 (stereo not given) , the logged pIC50 turned out to be 7.11

So for NCC1CCC(CNc2nc(NCc3ccccc3F)ncc2[N+](=O)[O-])CC1 (stereo not given) , the logged pIC50 turned out to be 7.32

So for NCC1CCC(CNc2nc(NCc3ccc(F)cc3)ncc2[N+](=O)[O-])CC1 (stereo not given) , the logged pIC50 turned out to be 6.68

So for NCC1CCC(CNc2nc(NCc3ccc(F)cc3F)ncc2[N+](=O)[O-])CC1 (stereo not given) , the logged pIC50 turned out to be 7.00

So for NCC1CCC(CNc2nc(Nc3cccc(Cl)c3)ncc2[N+](=O)[O-])CC1 (stereo not given) , the logged pIC50 turned out to be 7.22

----------
- test_system: UniProt Q04759
- assay_method_text: Inhibition of PKCtheta by FP assay
observed_property: IC50 (nM)
Provide the reading as a plain figure in nM.

| compound | IC50 [nM] |
| --- | --- |
| NCC1CCC(CNc2nc(NCc3ccccc3Cl)ncc2[N+](=O)[O-])CC1 (stereo not drawn) | 46 |
| NCCCCCNc1nc(NCc2ccccc2Cl)ncc1[N+](=O)[O-] | 450 |
| Cc1cccc(CNc2ncc([N+](=O)[O-])c(NCC3CCC(CN)CC3)n2)c1 (stereo not drawn) | 39 |
| NCC1CCC(CNc2nc(NCc3ccccc3SC(F)(F)F)ncc2[N+](=O)[O-])CC1 (stereo not drawn) | 6 |
| COc1ccccc1CNc1ncc([N+](=O)[O-])c(NCC2CCC(CN)CC2)n1 (stereo not drawn) | 17 |

Form field, IC50 with UniProt Q04759, item NCC1CCC(CNc2nc(NCCc3ccccc3)ncc2[N+](=O)[O-])CC1 (stereo not drawn) : 94

Form field, IC50 with UniProt Q04759, item NCC1CCC(CNc2nc(NCCc3ccccc3F)ncc2[N+](=O)[O-])CC1 (stereo not drawn) : 130

Form field, IC50 with UniProt Q04759, item NCC1CCC(CNc2nc(NCc3cccc(F)c3)ncc2[N+](=O)[O-])CC1 (stereo not drawn) : 83

Form field, IC50 with UniProt Q04759, item NCC1CCC(CNc2nc(NCc3ccccc3C(F)F)ncc2[N+](=O)[O-])CC1 (stereo not drawn) : 15

----------
- test_system: Protein kinase C theta type (Homo sapiens, UniProt Q04759)
- assay_method_text: Inhibition of PKCtheta by FP assay
observed_property: IC50 (nM)
Provide the reading as a plain figure in nM.

| compound | test_value |
| --- | --- |
| COc1cc(CNc2ncc([N+](=O)[O-])c(NCC3CCC(CN)CC3)n2)cc(OC)c1 (centres undefined) | 1500 |

So for NCC1CCC(CNc2nc(N[C@H]3CCc4ccccc43)ncc2[N+](=O)[O-])CC1 (some centres undefined) , the logged IC50 turned out to be 4400

So for Cc1ccccc1CCNc1ncc([N+](=O)[O-])c(NCC2CCC(CN)CC2)n1 (centres undefined) , the logged IC50 turned out to be 180

----------
- test_system: Protein kinase C theta type (Homo sapiens, UniProt Q04759)
- assay_method_text: Inhibition of PKCtheta by FP assay
Quick reference for IC50 among some compounds
Provide the reading as a plain figure in nM.

Known results for compounds:
| compound | IC50 / nM |
| --- | --- |
| Cc1c(Cl)cccc1CNc1ncc([N+](=O)[O-])c(NCC2CCC(CN)CC2)n1 (stereo unspecified) | 46 |
| CN(C)CC1CCC(CNc2nc(NCc3ccccc3Cl)ncc2[N+](=O)[O-])CC1 (stereo unspecified) | 54 |
| NCC1CCC(CNc2nc(NCCCc3ccccc3)ncc2[N+](=O)[O-])CC1 (stereo unspecified) | 270 |

So for NCC1CCCC(CNc2nc(NCc3ccccc3Cl)ncc2[N+](=O)[O-])C1 (stereo unspecified) , the logged IC50 turned out to be 3
